# Test system: UISO
# test_protocol: qHTS assay to identify novel small-molecules to repurpose for Merkel cell carcinoma treatment (AID 1296009); further: nearly all actives have a fitted effect of over 60% in size; further: potency means the concentration at half of the fitted maximal effect
# condition_parameters: MCC and control cell lines, CellTiter-Glo viability, 72 h; series mostly up to 46 µM
Records with an inconclusive call do not appear. Calls of active or inactive are those of the source. The call rests on the fitted dose curve; in most records, active means well fitted inhibition curve with a large enough effect; inconclusive means small, poorly fitted or top-dose-only effect; inactive means flat fitted curve, though single readings scatter.
measurement_name: Potency

Sample answers from the record:
>>> assay_result("Nc1nccc(Oc2ccc(NC(=O)c3c[nH]cc(-c4ccc(F)cc4)c3=O)cc2F)c1Cl")
"14.8 µM (active)"
>>> assay_result("COc1cccc2c(NCc3ccccc3)nc(-n3c(N)nc4ccccc43)nc12")
"6.62 µM (active)"
>>> assay_result("CCOC(=O)C1=C(C)NC2=C(C(=O)CC(C)(C)C2)C1c1ccc(-c2ccccc2)cc1 (configuration not stated)")
"inactive"
>>> assay_result("CCCCCCCCCC(=O)N[C@@H](Cc1c[nH]c2ccccc12)C(=O)N[C@H](CC(N)=O)C(=O)N[C@@H](CC(=O)O)C(=O)N[C@@H]1C(=O)NCC(=O)N[C@@H](CCCN)C(=O)N[C@@H](CC(=O)O)C(=O)N[C@H](C)C(=O)N[C@@H](CC(=O)O)C(=O)NCC(=O)N[C@H](CO)C(=O)N[C@@H]([C@@H](C)CC(=O)O)C(=O)N[C@@H](CC(=O)c2ccccc2N)C(=O)O[C@@H]1C")
"inactive"

Could you share which Potency value was measured for "COc1cc2c(Nc3ccc(NC(=O)c4ccccc4)cc3)ncnc2cc1OCCCN1CCOCC1" ?
inactive

Recorded Potency of "COc1cc(Nc2ncc(F)c(Nc3ccc4c(n3)N(COP(=O)(O)O)C(=O)C(C)(C)O4)n2)cc(OC)c1OC" , please.
inactive

Returns the measured Potency for the input molecule. Input: CCOc1ccccc1OCCNC(C)Cc1ccc(OC)c(S(N)(=O)=O)c1 (configuration not stated)
inactive

###

# test_protocol: Cell Proliferation Assay against the TMD8 Cell Line (Caspase readout at 16 hrs) (AID 651712)
# condition_parameters: TMD8 lymphoma cells, caspase activation luminescence; series mostly up to 46.1 µM
Records with an inconclusive call do not appear. Active and inactive are the calls of the source. Calls follow the shape of the dose curve; as a rule, active = well fitted activation curve with a large enough effect; inconclusive = small, poorly fitted or top-dose-only effect; inactive = flat fitted curve, though single readings scatter.
Your response should consist of one outcome taken from T (active), F (inactive)

>>> answer_label("CC1=C(CO)C(=O)O[C@@H]([C@@H](C)[C@H]2CC[C@H]3[C@@H]4C[C@H]5O[C@]56[C@@H](O)C=CC(=O)[C@]6(C)[C@@H]4CC[C@]23C)C1")
"F"
>>> answer_label("Cc1[nH]nc2ccc(-c3cncc(OC[C@@H](N)Cc4ccccc4)c3)cc12")
"T"
>>> answer_label("Nc1nccc(Oc2ccc(NC(=O)c3c[nH]cc(-c4ccc(F)cc4)c3=O)cc2F)c1Cl")
"F"
>>> answer_label("CCN1CCN(CC(=O)Nc2ccc(-c3cccc4c(=O)cc(N5CCOCC5)oc34)c3sc4ccccc4c23)CC1")
"T"
>>> answer_label("CC(=O)OCCN1C(=O)c2c(C)nc3ccc(S(=O)(=O)N4CCOCC4)cc3c2C1=O")
"F"

What did this assay record as the result for "O=C(c1ccc(Nc2nccc(-c3cc4ccccc4s3)n2)cc1)N1CCC(N2CCCC2)CC1" ?
F

Record request — test call for "CC(=O)c1c(C)c2cnc(Nc3ccc(N4CCNCC4)cn3)nc2n(C2CCCC2)c1=O"
T

Tell me the assay call for Cn1c2cc(S(C)=O)sc2c2cnn(Cc3cccc(N)c3)c(=O)c21 (configuration not stated) please.
F

Test call for this compound, please: "O=C(NC1CCNCC1)c1[nH]ncc1NC(=O)c1c(Cl)cccc1Cl"
T
